- Tested on: HPPD polypeptides
- run-description: coupled HPPD activity assay: turnover and residual turnover in crude extracts
- Format: biochemical, Pseudomonas fluorescens
- conditions-used: presence of 100 μM Cmpd. 1; high substrate concentration; changes in absorbance (OD) at 320 nm
measurement-name: Residual turnover

| molecule | measurement-name | assay-result |
| --- | --- | --- |
| 11 (protein, mutant HPPD polypeptide) MADLYENPMGLMGFEFIEFASPTPGTLEPIFEIMGFTKVATHRSKNVHLYRQGEINLILNNEPNSIASYFAAEHGPSVCGMAFRVKDSQKAYNRALELGAQPIHIDTGPMELNLPAIKGIGGAPLYLIDRFGEGSSIYDIDFVYLEGVERNPVGAGLKVIDHLTHNVYRGRMVYWANFYEKLFNFREARYFDIKGEYTGLTSKAMSAPDGMIRIPLNEESSKGAGQIEEFLMQFNGEGIQHVAFLTDDLVKTWDALKKIGMRFMTAPPDTYYEMLEGRLPDHGEPVDQLQARGILLDGSSVEGDKRLLLQIFSETLMGPVFFEFIQRKGDDGFGPDSFKVLFESVERDQVRRGVLTAD | Residual turnover | 0.071 |
